Data origin: PubChem BioAssay

Assay: small-molecule binders of probe aInhba, primary screen, biochemical, small-molecule microarray, 635/667 nm fluorescence (AID 1148);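 also: score merges 667nm spot fluorescence with signal-to-noise for antibody binding to printed compounds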
Settings: higher = more signal
class 1 means recorded composite z-score is -0.4 or above; class 0 means it is below -0.4.

Task: Is it the case that COCCCNC(=O)[C@@]1(CCS(=O)(=O)c2ccccc2)N=C(c2ccc(OCCCO)cc2)O[C@H]1c1ccccc1CN=[N+]=[N-] has composite z-score reaching or exceeding -0.4?
Output: class 1

* * *

Biological target: Luciferin 4-monooxygenase (Photinus pyralis) (UniProt P08659)
Sequence (P08659 whole entry, looked up): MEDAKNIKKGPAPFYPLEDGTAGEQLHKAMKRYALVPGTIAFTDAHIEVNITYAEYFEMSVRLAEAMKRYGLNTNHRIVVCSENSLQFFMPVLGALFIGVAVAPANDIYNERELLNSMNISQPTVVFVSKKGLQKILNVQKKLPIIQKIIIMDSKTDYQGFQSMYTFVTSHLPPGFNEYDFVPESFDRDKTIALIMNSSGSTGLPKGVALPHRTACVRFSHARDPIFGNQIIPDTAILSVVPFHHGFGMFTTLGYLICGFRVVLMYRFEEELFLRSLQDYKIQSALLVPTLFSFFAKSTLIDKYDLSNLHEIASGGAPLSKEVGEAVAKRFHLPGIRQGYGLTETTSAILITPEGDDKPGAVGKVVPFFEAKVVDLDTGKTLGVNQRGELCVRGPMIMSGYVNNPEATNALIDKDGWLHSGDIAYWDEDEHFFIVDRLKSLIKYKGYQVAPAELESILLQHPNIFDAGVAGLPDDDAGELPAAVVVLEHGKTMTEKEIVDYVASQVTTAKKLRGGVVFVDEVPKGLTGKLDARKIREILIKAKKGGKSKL
Test: firefly luciferase enzyme inhibitors, primary screen, biochemical, luminescence, purified enzyme, 2006 set (AID 1141);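 also: cell-free assay with purified firefly luciferase at 100 ng per well in PBS; test concentration not given here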
Settings: SteadyGlo luminescence, 30 min, higher = more signal, called active from +8 up or from −8 down
Activity calls are given as the source filed them.
Property Measured: z-score

compound=CC(C)(C)OC(=O)CC[C@@]12N=C(c3ccc(OCCCO)cc3)O[C@@H]1c1ccccc1CN(Cc1ccccc1)C2=O target_under_test="Luciferin 4-monooxygenase (Photinus pyralis) (UniProt P08659)" reported_result="-1.59 (inactive)"

Task: Can you share its z-score? I mean this compound: C=CCN1C(=O)[C@]2(O[C@H](CCn3cc([C@H](O)c4ccccc4)nn3)[C@@H]([Si](C)(C)c3ccc(OC)cc3)[C@@H]2C)c2cc(N3CCOC3=O)ccc21
Output: -0.678 (inactive)

Task: Can you share its z-score? I mean this compound: CC(C)CCC[C@@H](C)[C@H]1CC[C@@]2(C)C3=C(CC[C@]12C)[C@@]1(C)CC[C@H](OC(=O)CCl)C(C)(C)C1CC3 (some centres undefined)
Output: -1.28 (inactive)

Task: Can you share its z-score? I mean this compound: C/C=C/[C@@H](CCn1cc(CCO[Si](C(C)C)(C(C)C)C(C)C)nn1)[Si](C)(C)c1ccc(OC)cc1
Output: -2.45 (inactive)

* * *

Target: Alpha-bungarotoxin (Bungarus multicinctus)
Experiment: alpha-bungarotoxin binders on microarray, profiling panel, artefact control for SMM control protein annotation, biochemical, small-molecule microarray, Alexa647 label, 635/667 nm fluorescence (AID 1117)
Conditions: alpha-BTX-A647 binding fluorescence, higher = more signal
satisfied means recorded composite z-score is 1 or above; not satisfied means it is below 1.

compound=C[N+](C)(C)CCCC[C@@H]1NC(=O)[C@H]2C[C@@H](C(=O)NCCCCCN)[C@@H](c3cccc(OCCO)c3)N2C1=O label_class=satisfied
compound=COc1ccc(C(=O)Nc2cccc(CN3C(=O)[C@@]4(O[C@@H](CCO)[C@H]([Si](C)(C)c5ccc(OC)cc5)[C@H]4C)c4ccccc43)c2)cc1 label_class="not satisfied"
compound=CO[C@H]1O[C@H](CO)[C@@H](OC(=O)Nc2ccccc2)[C@H](OC(=O)Nc2ccccc2-c2ccccc2)[C@H]1OC(=O)Nc1ccccc1-c1ccccc1 label_class=satisfied
compound=O=C(NCC(F)(F)F)[C@@H]1c2ccccc2C(=O)N(C2Cc3ccccc3C2)[C@H]1c1ccc(CO)cc1 label_class="not satisfied"
compound=CCOC(=O)C[C@H]1[C@H](OC(=O)Cc2ccc3c(c2)OCO3)[C@@H](NC(=O)c2ccc3ccccc3c2)c2cc(OCCCO)ccc2N1C(=O)c1ccc2ccccc2n1 label_class=satisfied
compound="CC(C)C[C@@H]1NC(=O)[C@@]23C(=O)N[C@@H](Cc4ccccc4)C2[C@H](C)[C@@]2(C)O[C@H]2C3/C=C/C/C=C\\CNC(=O)[C@H](Cc2ccccc2)NC1=O (some centres not stated)" label_class="not satisfied"
compound=C=CCOC(=O)[C@H]1[C@@H]2C(=O)O[C@@H](c3ccccc3)[C@@H](c3ccccc3)N2[C@@H](c2ccc(OCCOC(=O)[C@H]3C[C@H]4C(=O)N5CCC[C@H]5C(=O)N4[C@H]3c3cccc(OCCO)c3)cc2)[C@]12C(=O)Nc1ccccc12 label_class=satisfied
compound=C=CCN1C(=O)[C@]2(O[C@H](CCn3cc([C@H](O)c4ccccc4)nn3)[C@@H]([Si](C)(C)c3ccc(OC)cc3)[C@@H]2C)c2cc(N3CCOC3=O)ccc21 label_class="not satisfied"
compound="CC(CO)N1C(=O)[C@@H]2C3C(=O)OCCC/C=C\\[C@H]3OC23C=CCN(Cc2ccccc2)C(=O)[C@@H]13 (some centres not stated)" label_class="not satisfied"
compound="C[C@@H](OCc1ccccc1)C1NC(=O)[C@@]23C(=O)N[C@@H](Cc4ccccc4)C2[C@H](C)[C@@]2(C)O[C@H]2C3/C=C/C/C=C\\CNC(=O)[C@@H]2CCCN2C1=O (some centres not stated)" label_class="not satisfied"

Task: Is it the case that C=CCNC(=O)[C@@H]1[C@H]2C(=O)O[C@H](c3ccccc3)[C@H](c3ccccc3)N2[C@H](c2ccc(O)cc2)[C@@]12C(=O)Nc1ccccc12 has composite z-score reaching or exceeding 1?
Output: satisfied
